- Measurement description: Toxicity liver stage against HepG2, at 10uM
- Assay type: cell-based
- Design: test concentration 10 uM, cell line HepG2-A16-CD81EGFP
- Conditions used: human, HepG2-A16-CD81EGFP cells; read-out: INHIBITION
Endpoint name: cytotoxicity at 10 µM (%)

O=C1COC2(CCN(c3ncccn3)CC2)CN1c1ccsc1 | -0.31
Cc1ccc(F)c(C(=O)N2CCN(S(C)(=O)=O)[C@@H](C)C2)c1 | -10.3
Cc1csc(CNC(=O)N(C)Cc2ccncc2)n1 | -10.8

* * *

- Measurement description: Toxicity liver stage against HepG2, at 10uM
- Format: cell-based
- Design: test concentration 10 uM, cell line HepG2-A16-CD81EGFP
- Conditions used: human, HepG2-A16-CD81EGFP cells; read-out: INHIBITION
Endpoint name: cytotoxicity at 10 µM (%)

CN(C)[C@@H]1CN(Cc2cccnc2)C[C@H]1c1cn(C)c2ccccc12 | 1.44
O=C([C@@H]1CCO[C@@H]2CCN(CC3CC3)C[C@H]21)N1CCCCO1 | 6.59
CCc1nc(C)c(C(=O)NCCNc2ncnc3sccc23)s1 | 41.1
O=C(c1cccnc1O)N1CCCN(c2cccnn2)CC1 | 6.82
COc1ccc(CNC(=O)CCc2nnc3ccccn3c2=O)cc1 | -13.5
CCN1C(=O)C(c2ccccc2)CC12CCN(S(C)(=O)=O)CC2 (stereo not drawn) | 3.2
CC(=O)c1cccc(-c2c[nH]c(C)n2)c1 | -0.916
Cn1ccnc1CN1CCC2(CC1)COCCN(S(C)(=O)=O)C2 | 3.39
CC(C)(O)CN1CCN(C(=O)c2ccn(-c3cccc(F)c3)n2)CC1 | -3.53
Cc1ncnc2c1CCN(C(=O)c1ccnnc1)CC2 | 9.9
CC1CCCN(CCNC(=O)c2ccn(-c3cccc(F)c3)n2)C1 (stereo not drawn) | -3.25
Cc1ccc(C(C(=O)NCc2n[nH]c(N)n2)N(C)C)cc1 (stereo not drawn) | 0.529
COCCn1cncc1-c1nc2c([nH]1)CC(C)(C)CNC2=O | 8.42

* * *

- Measurement description: Toxicity liver stage against HepG2, at 10uM
- Format: cell-based
- Set-up: test concentration 10 uM, cell line HepG2-A16-CD81EGFP
- Conditions used: human, HepG2-A16-CD81EGFP cells; read-out: INHIBITION
Endpoint name: cytotoxicity at 10 µM (%)

CCN(C)C(=O)CCC(=O)c1cccs1 | 3.9
COc1ccccc1Oc1ncccc1CNC(=O)[C@@H](N)[C@@H](C)O | -6.29
CCc1nnc2n1CCN(Cc1ccc(C(=O)N3CCCC3)cc1)C2 | -3.29
CN(Cc1nnc2ccccn12)C(=O)CCC1CCCC1 | -2.94
CCn1ncc2c(C(F)(F)F)cc(-c3ccn(C)n3)nc21 | 4.75
Cc1cnn(CC2CCCCN2C(=O)c2ccc3nncn3c2)c1 (stereo not drawn) | -8.66
CC(C)c1nn(C)c(N(C)C)c1CNCc1ccc(N(C)C)nc1 | -8.42
CN1C[C@H](COCC2CC2)[C@H]2CCN(Cc3ccco3)CC[C@H]2C1=O | -4.84
CNC(=O)c1cccc(C2CNCCN2C(=O)c2cccc(F)c2)c1 (stereo not drawn) | -7.9
CC(C)[C@@H]1CN(S(=O)(=O)Cc2ccccc2)C[C@H]1C(=O)O | -1.05
CC1(C)CN(C(=O)c2cnc(-c3ccccn3)nc2)CC[C@]1(C)O | -2.52
CNc1nc(C)c(C(=O)N2CCCCC2CN2CCCCCC2)s1 (stereo not drawn) | -2.5
CCc1cc(C(F)(F)F)n2nc(C3CCCN3C3CCSCC3)cc2n1 (stereo not drawn) | 3.81
CC(C)Nc1nc2c(c(NC3CC3)n1)CN(C(=O)c1ccnnc1)CC2 | -0.449
COc1ccc(S(=O)(=O)C2CCN(C(=O)c3cc(C)cs3)CC2)cc1 | 3.07
CN(Cc1ccccc1)C1(C(=O)NCC(N)=O)Cc2ccccc2C1 | 2.45
O[C@@]1(CNCCCNc2cccnc2)CCCN2CCCC[C@@H]21 | -3
CCn1ncc2c1C(COC)N(C(=O)Cc1cccs1)CC2 (stereo not drawn) | -109
CC(C)NC1CCc2c(ccc(=O)n2CCN2CCOCC2)C1 (stereo not drawn) | 7.64
COCC(=O)N1CCC2(CCCN(Cc3cnn(C)c3)C2)C1 (stereo not drawn) | -73.3
O=C1CC2(CCSC2)C(=O)N1Cc1ncc(-c2cccc(F)c2)o1 (stereo not drawn) | 10.3
c1ccc(-n2cncn2)c(CNCCn2cccn2)c1 | -4.29
Cn1cc(CN2CCOC(c3cccc(-c4cncnc4)n3)C2)cn1 (stereo not drawn) | 4.74
COc1ccc(CN2CCOC[C@H](OCC(=O)N(C)C)C2)cc1 | 0.552
O=C(CN1CCCC1CCCO)NCc1ccccn1 (stereo not drawn) | -5.6
Cc1ncncc1-c1ccnc(N)n1 | -7.22
CN(Cc1ccncc1)C(=O)NC1CCS(=O)(=O)C1 (stereo not drawn) | -2.94
CC(C)CN1CCC(c2nc3ccc(NC(C)C)cn3n2)CC1 | 1.13
Fc1ccccc1C(CNc1ccncn1)N1CCCC1 (stereo not drawn) | 2.84
Cc1nn(C)cc1C(C)Nc1ncc(C(N)=O)cc1Cl (stereo not drawn) | 3.68
Cc1ccc(-c2cc(CN3CCCC(Cn4cncn4)C3)on2)cc1 (stereo not drawn) | -11.8
CCCOc1ccc(CNC(=O)N2CCC(C(N)=O)C2)cc1 (stereo not drawn) | -5.87
COc1ncccc1C(=O)N1CCCC1c1nc(-c2ccccc2)no1 (stereo not drawn) | 1.75
CS(=O)(=O)c1cn[nH]c1C1CCCCN1C(=O)Cc1cccnc1 (stereo not drawn) | -30.7
CNC(=O)Cc1ccccc1NC(=O)N[C@H]1c2ccccc2C[C@H]1O | -36.1
CCNC(=O)[C@@H]1C[C@@H](NC(=O)Cc2cc(C)no2)CN1Cc1ccsc1 | 5.62
O=C(c1cocn1)N1CCC2(CC1)CC(Oc1ccccn1)CO2 (stereo not drawn) | 9.34
CN1CCCN(S(=O)(=O)c2cn(C)cn2)c2cc(Cl)ccc21 | 2.14
